Assay: Human HepG2 cell viability assay in 384 well format
Format: toxicity, cell-based
Parameters: dose 125 nL, time 70.5 hour; concentration not given beside the values
Details: HepG2 cells, read-out: Inhibition
Quick list: cytotoxicity at 70.5 h per entry.
Observation type: cytotoxicity at 70.5 h (%)

Molecule | Observation type | Result value
CC(C)CN1CCC2(CCN(C(=O)c3ccc(F)cc3)CC2)C1=O | cytotoxicity at 70.5 h | -5.58
CN(C)c1ncccc1CNCc1ccc(N2CCOCC2)cc1 | cytotoxicity at 70.5 h | 18.9
O=C(NCCc1cccs1)NC1CCN(c2ncccn2)CC1 | cytotoxicity at 70.5 h | -6.98
Cc1noc(C)c1CCc1nc(C2CCOC2)no1 (stereo unspecified) | cytotoxicity at 70.5 h | -11.1
CC(C)(C)n1cc(CNC2CCN(C(=O)c3ccoc3)CC2)cn1 | cytotoxicity at 70.5 h | -1.77
CCc1c(C(=O)NC2CCS(=O)(=O)C2)cnn1-c1ccc(C)cc1 (stereo unspecified) | cytotoxicity at 70.5 h | -6.41
